Recorded measurements of CC50, one per entry
experiment: median toxic concentration on MRC-5 cell; assay type: cell-based; conditions: human, MRC-5 cells, Table 1-2 (therapeutic effect), read-out: TC50 (the source's name)
# number then unit; no other words

// worked examples, CC50 included
>>> endpoint_result("O=C1N=C(NS(=O)(=O)c2cccc3ccccc23)S/C1=C\\c1cccc(O)c1 [Compound 6]")
"38.5 µM"
>>> endpoint_result("O=C1N=C(NS(=O)(=O)c2cccc3ccccc23)S/C1=C\\c1ccc(Br)cc1 [Con 1, reference compound]")
"10.7 µM"

With those in mind, consider the next compound.
Value of measured CC50 for the entry O=C1N=C(NS(=O)(=O)c2cccc3ccccc23)S/C1=C\c1ccc(Cl)cc1Cl [Compound 1] : 12.8 µM

* * *

Assay: median toxic concentration on Vero cell
Format: cell-based
Conditions: African green monkey, Vero cells, Table 2-1 (preventive effect), read-out: TC50
Description: 1. […] 4. […] The virus-inhibition rate of a sample at each concentration was calculated based on the chemiluminescent value, the sample concentration was used as abscissa, and the inhibition rate was used as ordinate, and S-Curve fitting was performed by using Origin software. Half maximal inhibitory concentration (IC50) of each sample for enterovirus EV71 was calculated based on the fitting results. Median toxic concentration (TC50) was determined by the same method. […]
Under this convention, T denotes CC50 at 2 h strictly below 10 µM and F denotes CC50 at 2 h at or above 10 µM.

>>> assigned_category("CC(=O)Nc1ccc(/C=C2\\SC(NS(=O)(=O)c3cccc4ccccc34)=NC2=O)cc1")
"F"

Query block: For this compound, is CC50 at 2 h lower than 10 µM? O=C1N=C(NS(=O)(=O)c2cccc3ccccc23)S/C1=C\c1cccc(O)c1
Result block: F

Query block: For this compound, is CC50 at 2 h lower than 10 µM? O=C1N=C(NS(=O)(=O)c2cccc3ccccc23)S/C1=C\c1ccc(-c2ccccc2)cc1
Result block: T

Query block: For this compound, is CC50 at 2 h lower than 10 µM? O=C1N=C(NS(=O)(=O)c2cccc3ccccc23)S/C1=C\c1ccc(Cl)cc1
Result block: T

Query block: For this compound, is CC50 at 2 h lower than 10 µM? COc1cccc(OC)c1/C=C1\SC(NS(=O)(=O)c2cccc3ccccc23)=NC1=O
Result block: F

Query block: For this compound, is CC50 at 2 h lower than 10 µM? O=C1N=C(NS(=O)(=O)c2cccc3ccccc23)S/C1=C\c1ccc(Br)cc1 [Con 1, reference compound]
Result block: T

Query block: For this compound, is CC50 at 2 h lower than 10 µM? O=C1N=C(NS(=O)(=O)c2cccc3ccccc23)S/C1=C\c1ccc(C(=O)O)cc1
Result block: F

Query block: For this compound, is CC50 at 2 h lower than 10 µM? O=C1N=C(NS(=O)(=O)c2cccc3ccccc23)SC1C(c1ccccc1)c1ccc(Br)cc1 (stereo not drawn)
Result block: F

Query block: For this compound, is CC50 at 2 h lower than 10 µM? O=C1N=C(NS(=O)(=O)c2cccc3ccccc23)S/C1=C\c1ccc(O)c(Br)c1
Result block: F

Query block: For this compound, is CC50 at 2 h lower than 10 µM? O=C1N=C(NS(=O)(=O)c2cccc3ccccc23)S/C1=C\c1ccc(Cl)cc1Cl
Result block: F

* * *

assay: median toxic concentration on RD cell; assay type: cell-based; conditions: human, RD cells, Table 1-3 (therapeutic effect), read-out: TC50 (the source's name)
REPORTED ENDPOINT: CC50 (µM)
Give just the number in µM; leave the unit off.

// worked examples, CC50 included
>>> endpoint_result("O=C1N=C(NS(=O)(=O)c2cccc3ccccc23)SC1Nc1ccccc1 (stereo not shown) [Compound 13]")
66.7
>>> endpoint_result("COc1cc(/C=C2\\SC(NS(=O)(=O)c3cccc4ccccc34)=NC2=O)ccc1O [Compound 2]")
22.2

With those in mind, consider the next molecule.
Value of measured CC50 for the entry COc1ccc(/C=C2\SC(NS(=O)(=O)c3cccc4ccccc34)=NC2=O)cc1O [Compound 7] : 3.56

* * *

assay: median toxic concentration on RD cell; type: cell-based; details: human, RD cells, Table 1-3 (therapeutic effect), read-out: TC50 (the source's name)
REPORTED ENDPOINT: CC50 (µM)
Give just the number in µM; leave the unit off.

// worked examples, CC50 included
>>> endpoint_result("O=C1N=C(NS(=O)(=O)c2cccc3ccccc23)S/C1=C\\c1cccc(O)c1")
38.5
>>> endpoint_result("COc1cccc(OC)c1/C=C1\\SC(NS(=O)(=O)c2cccc3ccccc23)=NC1=O")
12.8
>>> endpoint_result("O=C1N=C(NS(=O)(=O)c2cccc3ccccc23)S/C1=C\\c1ccc(-c2ccccc2)cc1")
46.2

With those in mind, consider the next compound.
Value of measured CC50 for the entry O=C1N=C(NS(=O)(=O)c2cccc3ccccc23)S/C1=C\c1ccc(F)cc1Cl : 15.4

* * *

test: median toxic concentration on RD cell; assay type: cell-based; settings: human, RD cells, read-out: TC50 (the source's name)
REPORTED ENDPOINT: CC50
# number then unit; no other words

// worked examples, CC50 included
>>> endpoint_result("O=C1N=C(NS(=O)(=O)c2cccc3ccccc23)S/C1=C\\c1ccc(Cl)cc1")
"12.8 µM"
>>> endpoint_result("O=C1N=C(NS(=O)(=O)c2cccc3ccccc23)S/C1=C\\c1ccc(Br)cc1 [Con 1, reference compound]")
"12.8 µM"

With those in mind, consider the next compound.
Value of measured CC50 for the entry CCN(CC)c1ccc(/C=C2\SC(NS(=O)(=O)c3cccc4ccccc34)=NC2=O)c(O)c1 : 12.8 µM

* * *

experiment: median toxic concentration on Vero cell; assay type: cell-based; conditions: African green monkey, Vero cells, Table 1-1 (therapeutic effect), read-out: TC50 (the source's name)
Recorded measurements of CC50, one per entry
Give just the number in µM; leave the unit off.

// worked examples, CC50 included
>>> endpoint_result("O=C1N=C(NS(=O)(=O)c2cccc3ccccc23)S/C1=C\\c1ccc(Br)cc1 [Con 1, reference compound]")
4.28
>>> endpoint_result("O=C1N=C(NS(=O)(=O)c2cccc3ccccc23)SC1Nc1ccccc1 (centres unmarked) [Compound 13]")
66.7
>>> endpoint_result("O=C1N=C(NS(=O)(=O)c2cccc3ccccc23)S/C1=C\\c1ccc(F)cc1Cl [Compound 10]")
10.7
>>> endpoint_result("O=C1N=C(NS(=O)(=O)c2cccc3ccccc23)SC1C(c1ccccc1)c1ccc(Br)cc1 (centres unmarked) [Compound 14]")
32
>>> endpoint_result("O=C1N=C(NS(=O)(=O)c2cccc3ccccc23)S/C1=C\\c1ccc(-c2ccccc2)cc1 [Compound 11]")
3.56
>>> endpoint_result("COc1ccc(/C=C2\\SC(NS(=O)(=O)c3cccc4ccccc34)=NC2=O)cc1O [Compound 7]")
7.41

Value of measured CC50 for the entry O=C1N=C(NS(=O)(=O)c2cccc3ccccc23)S/C1=C\c1ccc(Cl)cc1Cl [Compound 1] : 10.7

Value of measured CC50 for the entry O=C1N=C(NS(=O)(=O)c2cccc3ccccc23)S/C1=C\c1ccc(O)c(Br)c1 [Compound 8] : 12.8

* * *

Recorded measurements of CC50, one per entry
assay: median toxic concentration on MRC-5 cell; assay type: cell-based; conditions: human, MRC-5 cells, Table 1-2 (therapeutic effect), read-out: TC50 (the source's name)
# number then unit; no other words

// worked examples, CC50 included
>>> endpoint_result("COc1ccc(/C=C2\\SC(NS(=O)(=O)c3cccc4ccccc34)=NC2=O)cc1O")
"10.7 µM"
>>> endpoint_result("O=C1N=C(NS(=O)(=O)c2cccc3ccccc23)S/C1=C\\c1ccc(Cl)cc1")
"12.8 µM"
>>> endpoint_result("O=C1N=C(NS(=O)(=O)c2cccc3ccccc23)S/C1=C\\c1ccc(O)c(Br)c1")
"9.54 µM"

Value of measured CC50 for the entry COc1cccc(OC)c1/C=C1\SC(NS(=O)(=O)c2cccc3ccccc23)=NC1=O : 38.5 µM

* * *

assay: median toxic concentration on MRC-5 cell; type: cell-based; settings: human, MRC-5 cells, Table 1-2 (therapeutic effect), read-out: TC50 (the source's name)
REPORTED ENDPOINT: CC50 (µM)
Give just the number in µM; leave the unit off.

// worked examples, CC50 included
>>> endpoint_result("O=C1N=C(NS(=O)(=O)c2cccc3ccccc23)S/C1=C\\c1ccc(-c2ccccc2)cc1")
32
>>> endpoint_result("O=C1N=C(NS(=O)(=O)c2cccc3ccccc23)S/C1=C\\c1ccc(F)cc1Cl")
12.8
>>> endpoint_result("O=C1N=C(NS(=O)(=O)c2cccc3ccccc23)SC1C(c1ccccc1)c1ccc(Br)cc1 (centres unmarked)")
32
>>> endpoint_result("O=C1N=C(NS(=O)(=O)c2cccc3ccccc23)SC1Nc1ccccc1 (centres unmarked)")
66.7
>>> endpoint_result("CC(=O)Nc1ccc(/C=C2\\SC(NS(=O)(=O)c3cccc4ccccc34)=NC2=O)cc1")
38.5
>>> endpoint_result("COc1cc(/C=C2\\SC(NS(=O)(=O)c3cccc4ccccc34)=NC2=O)ccc1O")
22.2

With those in mind, consider the next molecule.
Value of measured CC50 for the entry CCN(CC)c1ccc(/C=C2\SC(NS(=O)(=O)c3cccc4ccccc34)=NC2=O)c(O)c1 : 12.8
